- Assay target: human recombinant HDAC6 (Homo sapiens, UniProt Q9UBN7)
- Construct: purchased Calbiochem 382180
- Sequence (Q9UBN7 whole entry): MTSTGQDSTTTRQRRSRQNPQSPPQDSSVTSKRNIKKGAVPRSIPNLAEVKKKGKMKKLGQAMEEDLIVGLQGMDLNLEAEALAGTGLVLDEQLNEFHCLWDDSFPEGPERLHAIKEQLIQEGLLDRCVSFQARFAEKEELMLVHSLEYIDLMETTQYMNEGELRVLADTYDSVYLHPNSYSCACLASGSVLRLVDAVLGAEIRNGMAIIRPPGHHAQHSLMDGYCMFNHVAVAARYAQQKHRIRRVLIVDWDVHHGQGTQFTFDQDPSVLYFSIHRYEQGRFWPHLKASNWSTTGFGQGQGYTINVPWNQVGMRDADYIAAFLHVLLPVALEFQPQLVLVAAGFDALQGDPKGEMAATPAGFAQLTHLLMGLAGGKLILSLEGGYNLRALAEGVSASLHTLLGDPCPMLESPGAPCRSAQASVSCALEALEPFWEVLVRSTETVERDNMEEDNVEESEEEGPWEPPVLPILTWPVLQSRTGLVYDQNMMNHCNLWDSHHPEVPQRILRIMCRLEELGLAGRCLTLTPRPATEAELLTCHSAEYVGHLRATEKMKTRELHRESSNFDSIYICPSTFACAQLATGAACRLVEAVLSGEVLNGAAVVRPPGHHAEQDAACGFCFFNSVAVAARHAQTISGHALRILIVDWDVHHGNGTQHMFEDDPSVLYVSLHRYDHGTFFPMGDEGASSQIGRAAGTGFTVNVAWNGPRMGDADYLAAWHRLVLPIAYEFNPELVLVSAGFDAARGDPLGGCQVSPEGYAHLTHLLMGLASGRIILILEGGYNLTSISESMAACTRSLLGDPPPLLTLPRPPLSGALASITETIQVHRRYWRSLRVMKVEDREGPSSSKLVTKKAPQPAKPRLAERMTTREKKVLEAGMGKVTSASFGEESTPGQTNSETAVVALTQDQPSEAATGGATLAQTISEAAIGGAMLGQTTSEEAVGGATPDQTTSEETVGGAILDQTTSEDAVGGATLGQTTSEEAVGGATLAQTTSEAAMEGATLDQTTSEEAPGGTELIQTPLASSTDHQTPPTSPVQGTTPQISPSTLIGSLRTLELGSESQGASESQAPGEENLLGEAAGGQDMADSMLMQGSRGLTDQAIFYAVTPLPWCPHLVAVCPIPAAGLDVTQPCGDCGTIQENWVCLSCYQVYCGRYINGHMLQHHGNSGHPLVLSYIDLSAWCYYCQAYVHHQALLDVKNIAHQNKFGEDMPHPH
- Assay: HDAC6 enzyme activity inhibition assay (HDAC Fluorimetric Drug Discovery Kit)
- Format: biochemical
- Measurement context: HDAC6 over HDAC1
- Procedure: In order to examine the HDAC6 selectivity of the compounds of formula I of the present invention by HDAC1 and HDAC6 enzymatic activity inhibition assays, an experiment was performed using a conventional substance as a control. HDAC enzyme activity was measured using a HDAC Fluorimetric Drug Discovery Kit (BML-AK511, 516, Enzo Life Science). […] Based on the resulting values, each IC5, value was calculated using GraphPad Prism4.0 program.
Recorded HDAC6 selectivity (fold) values for a group of compounds are listed next.
Parameter: HDAC6 selectivity (fold)

> print(dat)
                                 mol.smiles                 parameter  measured.value
1  CCN1CCN(C(=O)N(Cc2ccc(-c3nnc(C(F)F)o3)cc2F)c2ccc(OC)cc2)CC1  HDAC6 selectivity (fold)             640
2  CCN1CCN(C(=O)N(Cc2ccc(-c3nnc(C(F)F)o3)cc2)c2cccc(OC)c2)CC1  HDAC6 selectivity (fold)             103
3  CN1CCN(C(=O)N(Cc2ccc(-c3nnc(C(F)F)o3)cc2F)c2ccc(-c3ccccc3)cc2)CC1  HDAC6 selectivity (fold)             164
4  O=C(N1CCC(F)(F)CC1)N(Cc1ccc(-c2nnc(C(F)(F)F)o2)cc1)c1ccccc1  HDAC6 selectivity (fold)              30
5  O=C(N1CCOCC1)N(Cc1ccc(-c2nnc(C(F)F)o2)nc1)c1ccc(F)c(Cl)c1  HDAC6 selectivity (fold)              88
6  CCN(Cc1ccc(-c2nnc(C(F)(F)F)o2)cc1)C(=O)N1CCS(=O)(=O)CC1  HDAC6 selectivity (fold)               6
7  CC(=O)N1CCN(C(=O)N(Cc2ccc(-c3nnc(C(F)(F)F)o3)cc2)c2ccccc2)CC1  HDAC6 selectivity (fold)             108

These data points were gathered from patent US10717716B2.
